Where do the numbers come from? From patent US9434724B2.

biological target: CYP2C19 (Homo sapiens (Human), UniProt P33261); assay: Cytochrome P450 inhibition in human liver microsomes, CYP2C19; settings: read-out: 2C19 IC50, Protocol 1
Sequence (P33261 whole entry): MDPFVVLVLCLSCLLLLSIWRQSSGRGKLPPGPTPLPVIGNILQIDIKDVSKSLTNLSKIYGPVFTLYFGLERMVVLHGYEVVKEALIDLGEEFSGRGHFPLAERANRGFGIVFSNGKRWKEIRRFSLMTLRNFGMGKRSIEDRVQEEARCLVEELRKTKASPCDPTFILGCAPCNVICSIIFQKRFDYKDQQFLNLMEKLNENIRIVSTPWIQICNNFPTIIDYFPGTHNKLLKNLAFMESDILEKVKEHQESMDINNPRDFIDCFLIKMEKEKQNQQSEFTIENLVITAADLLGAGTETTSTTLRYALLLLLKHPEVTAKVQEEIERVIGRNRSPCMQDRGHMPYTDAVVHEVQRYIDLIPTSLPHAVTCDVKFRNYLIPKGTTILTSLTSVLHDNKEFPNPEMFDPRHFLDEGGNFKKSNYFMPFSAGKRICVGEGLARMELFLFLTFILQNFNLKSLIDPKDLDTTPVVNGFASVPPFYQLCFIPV
Property Label: IC50

Compound	IC50
O=C(OCC12CCN(CC1)CC2)c1c[nH]c2cc(F)cc(Br)c12 [Compound 41]	> 10 µM
Cl.O=C(OCC12CCN(CC1)CC2)c1c[nH]c2cc(O)c(F)cc12 [Compound 59, hydrochloride]	20.9 µM
O=C(OCC12CCN(CC1)CC2)c1c[nH]c2cc(O)cc(Br)c12 [Compound 53]	> 10 µM
Cc1cc(F)cc2[nH]cc(C(=O)OCC34CCN(CC3)CC4)c12 [Compound 44]	> 10 µM

Param item = O=C(OCC12CCN(CC1)CC2)c1c[nH]c2cc(Cl)cc(Br)c12 [Compound 42] ; retrieve measured IC50. > 10 µM

----------
test: Human plasma stability; format: in vitro ADME; settings: human, plasma, 2 h, 5 μM
% Remaining @ 2 h vs 70%: at or above is 1, below is -1.

Compound	Category Label
COCCCOc1ccc2[nH]cc(C(=O)OCC34CCN(CC3)CC4)c2c1C [Compound 92]	-1

Test whether the compound Cc1cc(F)cc2[nH]cc(C(=O)OCC34CCN(CC3)CC4)c12 [Compound 44] records % Remaining @ 2 h of 70% or higher. 1

Test whether the compound COc1ccc2[nH]cc(C(=O)OCC34CCN(CC3)CC4)c2c1Br [Compound 47] records % Remaining @ 2 h of 70% or higher. 1

Test whether the compound CC(=O)Nc1cc(C)c2c(C(=O)OCC34CCN(CC3)CC4)c[nH]c2c1 [Compound 93] records % Remaining @ 2 h of 70% or higher. 1

Test whether the compound Cc1cc2c(C(=O)OCC34CCN(CC3)CC4)c[nH]c2cc1O [Compound 55] records % Remaining @ 2 h of 70% or higher. -1

----------
target: rat brain nicotinic receptor (α7 NAChR) (Rattus norvegicus (Rat)); format: binding
Sequence (Q05941 23-502 limits assumed): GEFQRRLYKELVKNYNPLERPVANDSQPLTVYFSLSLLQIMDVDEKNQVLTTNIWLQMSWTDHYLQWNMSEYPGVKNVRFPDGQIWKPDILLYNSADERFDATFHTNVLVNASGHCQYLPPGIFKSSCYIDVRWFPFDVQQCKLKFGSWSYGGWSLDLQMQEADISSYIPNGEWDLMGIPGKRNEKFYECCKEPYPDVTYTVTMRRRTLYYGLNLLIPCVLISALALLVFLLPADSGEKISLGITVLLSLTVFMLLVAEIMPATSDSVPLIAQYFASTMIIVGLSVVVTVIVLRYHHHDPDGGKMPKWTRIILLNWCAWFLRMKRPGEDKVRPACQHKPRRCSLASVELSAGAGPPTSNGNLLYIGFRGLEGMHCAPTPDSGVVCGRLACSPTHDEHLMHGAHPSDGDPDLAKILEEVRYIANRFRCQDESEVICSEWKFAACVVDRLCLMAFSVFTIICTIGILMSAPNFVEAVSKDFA
What Ki was measured for each of the following?
Answers are plain numbers, in nM.

These solved cases illustrate the format of a correct answer.
Given Smiles	Output Unit	Ki
Cc1cc2c(C(=O)OCC34CCN(CC3)CC4)c[nH]c2cc1O	nM	44.8
Cc1c(F)ccc2[nH]cc(C(=O)OCC34CCN(CC3)CC4)c12	nM	177
COc1cc2c(C(=O)OCC34CCN(CC3)CC4)c[nH]c2cc1C#N	nM	552
Cc1cc(Br)c2c(C(=O)OCC34CCN(CC3)CC4)c[nH]c2c1	nM	214

Next molecule, Ki to be filled in.
Param item = `COc1ccc2[nH]cc(C(=O)OCC34CCN(CC3)CC4)c2c1OC` ; retrieve measured Ki. 60

----------
assay: Metabolic stability assay in rat liver microsomes (RLM); format: in vitro ADME; conditions: rat, microsomes, 1 μM
Structures can show the parent of a compound that is named as a salt.
Grouping by measured RLM is done with the following cut points: 0: < 80 mL/min/kg; 1: ≥ 80 mL/min/kg and < 400 mL/min/kg; 2: ≥ 400 mL/min/kg

Consider the following illustrative entries.
Molecule	Category Label
COc1cc2c(C(=O)OCC34CCN(CC3)CC4)c[nH]c2cc1O [Compound 86]	0
O=C(OCC12CCN(CC1)CC2)c1c[nH]c2cccc(C3CC3)c12 [Compound 61]	2
Cc1cc(OC(=O)C(C)(C)C)cc2[nH]cc(C(=O)OCC34CCN(CC3)CC4)c12 [Compound 89]	2
Cc1c(OCC(F)(F)F)ccc2[nH]cc(C(=O)OCC34CCN(CC3)CC4)c12 [Compound 94]	0
COCCOc1ccc2[nH]cc(C(=O)OCC34CCN(CC3)CC4)c2c1C [Compound 91]	1
O=C(OCC12CCN(CC1)CC2)c1c[nH]c2ccc(F)c(Cl)c12 [Compound 62, hydrochloride]	2
COc1cc(Br)c2c(C(=O)OCC34CCN(CC3)CC4)c[nH]c2c1 [Compound 48]	0
COc1cc(C)c2c(C(=O)OCC34CCN(CC3)CC4)c[nH]c2c1 [Compound 37]	0
Cc1cc2c(C(=O)OCC34CCN(CC3)CC4)c[nH]c2cc1Cl [Compound 78]	2
Cc1cc(F)cc2[nH]cc(C(=O)OCC34CCN(CC3)CC4)c12 [Compound 44]	2

Form: Item = O=C(OCC12CCN(CC1)CC2)c1c[nH]c2cc(F)cc(Br)c12 [Compound 41] ; Class = ? 1

Form: Item = COc1ccc2[nH]cc(C(=O)OCC34CCN(CC3)CC4)c2c1Cl [Compound 39] ; Class = ? 1

Form: Item = O=C(OCC12CCN(CC1)CC2)c1c[nH]c2ccc3c(c12)OCCO3 [Compound 81] ; Class = ? 0

Form: Item = COCCCOc1ccc2[nH]cc(C(=O)OCC34CCN(CC3)CC4)c2c1C [Compound 92] ; Class = ? 1

Form: Item = Cc1cc(Br)c2c(C(=O)OCC34CCN(CC3)CC4)c[nH]c2c1 [Compound 49] ; Class = ? 1

Form: Item = COc1cc2[nH]cc(C(=O)OCC34CCN(CC3)CC4)c2cc1C [Compound 56] ; Class = ? 2

Form: Item = Cc1cc(Cl)cc2[nH]cc(C(=O)OCC34CCN(CC3)CC4)c12 [Compound 50] ; Class = ? 1

----------
Experiment: Metabolic stability assay in rat liver microsomes (RLM)
Format: in vitro ADME
Details: Protocol No. 1; rat liver microsomes, 1 μM
Procedure: Protocol 1: Studies were carried out in human and rat liver microsomes (“HLM” and “RLM,” respectively). Human and rat liver microsomes were purchased from BD Gentest. DMSO stocks were prepared for the test compounds. […] Aliquots of the supernatant were removed, diluted 1:1 into distilled water, and analyzed by LC-MS/MS. […] Half-lives were calculated using Excel software, fitting to a single-phase exponential decay equation. […]
Counter-ions that a name gives are not always drawn.
What RLM was measured for each of the following?
Express your answer as a number followed by its unit.

These solved cases illustrate the format of a correct answer.
Compound	Assay Result
Cc1ccc2c(C(=O)OCC34CCN(CC3)CC4)c[nH]c2c1.Cl [Compound 45]	170.981 mL/min/kg
O=C(OCC12CCN(CC1)CC2)c1c[nH]c2cc(O)cc(Br)c12 [Compound 53]	29.9085 mL/min/kg
Cc1cc(Cl)c2c(C(=O)OCC34CCN(CC3)CC4)c[nH]c2c1.Cl [Compound 65]	286.666 mL/min/kg
Cl.O=C(OCC12CCN(CC1)CC2)c1c[nH]c2cc(Cl)cc(Cl)c12 [Compound 71]	121.175 mL/min/kg
Cc1cc2[nH]cc(C(=O)OCC34CCN(CC3)CC4)c2cc1F [Compound 72, hydrochloride]	339.452 mL/min/kg
COc1cc2[nH]cc(C(=O)OCC34CCN(CC3)CC4)c2cc1OC [Compound 87]	257.71 mL/min/kg

Return reported RLM values for all items listed beneath this line.
1. Cl.O=C(OCC12CCN(CC1)CC2)c1c[nH]c2cc(F)cc(Cl)c12 [Compound 64]
2. COc1cc2c(C(=O)OCC34CCN(CC3)CC4)c[nH]c2cc1C.Cl [Compound 79]

1: 77.4932 mL/min/kg; 2: 576.18 mL/min/kg

Param item = Cl.O=C(OCC12CCN(CC1)CC2)c1c[nH]c2cc(C(F)(F)F)ccc12 [Compound 90] ; retrieve measured RLM. 72.22 mL/min/kg

----------
molecular target: UniProtKB Q05941; format: binding
pIC50: −log10 of the molar value.
pIC50 vs 7: at or above is true (1), below is false (0).

Consider the following illustrative entries.
Compound	Category Label
O=C(OCC12CCN(CC1)CC2)c1c[nH]c2ccccc12 [Compound 1]	true (1)
COc1cc(C#N)cc2[nH]cc(C(=O)OCC34CCN(CC3)CC4)c12 [Compound 77]	false (0)
COc1ccc2[nH]cc(C(=O)OCC34CCN(CC3)CC4)c2c1Cl [Compound 39]	true (1)
Cc1cc2c(C(=O)OCC34CCN(CC3)CC4)c[nH]c2cc1F [Compound 58]	false (0)
COc1ccc2[nH]cc(C(=O)OCC34CCN(CC3)CC4)c2c1C [Compound 34]	true (1)
Cc1cc2c(C(=O)OCC34CCN(CC3)CC4)c[nH]c2cc1Cl [Compound 78]	false (0)

Test whether the compound Cc1cc2[nH]cc(C(=O)OCC34CCN(CC3)CC4)c2cc1Cl.Cl [Compound 66, hydrochloride] records pIC50 of 7 or higher. false (0)

Test whether the compound O=C(OCC12CCN(CC1)CC2)c1c[nH]c2ccc(Br)cc12 [Compound 23] records pIC50 of 7 or higher. false (0)

Test whether the compound COc1cc2c(C(=O)OCC34CCN(CC3)CC4)c[nH]c2cc1C#N [Compound 76] records pIC50 of 7 or higher. false (0)

Test whether the compound Cc1cc(F)cc2[nH]cc(C(=O)OCC34CCN(CC3)CC4)c12 [Compound 44] records pIC50 of 7 or higher. false (0)

Test whether the compound Cl.O=C(OCC12CCN(CC1)CC2)c1c[nH]c2cc(Cl)cc(Cl)c12 [Compound 71, hydrochloride] records pIC50 of 7 or higher. false (0)

Test whether the compound COc1cc(Cl)c2c(C(=O)OCC34CCN(CC3)CC4)c[nH]c2c1 [Compound 38] records pIC50 of 7 or higher. false (0)

Test whether the compound Cc1ccc2[nH]cc(C(=O)OCC34CCN(CC3)CC4)c2c1Br [Compound 68] records pIC50 of 7 or higher. false (0)
